Square brackets hold non-standard residues; d marks the D form. Peptide text beside a SMILES is read from it. * marks the point of attachment. Fmoc = O=C(OCC1c2ccccc2-c2ccccc21)*; Aib = CC(C)(N)C(=O)O
result-type: pKd
Entry type: numeric. Quantity: pKd, the -log10 of concentration in molar units.

Test item CC(C)(NC(=O)[C@H](Cc1ccc(O)cc1)NC(=O)[C@H](CCC(=O)O)NC(=O)OCC1c2ccccc2-c2ccccc21)C(=O)N[C@@H](CC(N)=O)C(=O)O (Fmoc-EY[Aib]N-OH) ; Growth factor receptor-bound protein 2 (Homo sapiens, UniProt P62993); reported pKd was 8.20
